The molecules listed here are annotated with their pest or weed control at 140 g/ha.
System: Key Broadleaf Weed and Crop Species
Test: Post-Emergent Test II: postemergent herbicidal activity, visual rating after 14 d (Table 7)
Format: in vivo
Details: post-emergence, 336 h, velvetleaf (Abutilon theophrasti), 140 g ai/ha, read-out: Visual Growth Reduction (%) 14 Days After Application ABUTH
parameter.measured: pest or weed control at 140 g/ha

{"molecule": "COC(=O)c1nc(-c2cc3c(cc2F)OCO3)cc(N)c1Cl", "system": "Key Broadleaf Weed and Crop Species", "parameter.measured": "pest or weed control at 140 g/ha", "meas.value": "95 to 100%"}
{"molecule": "Nc1c(F)c(-c2cc3c(cc2F)OC(F)(F)O3)nc(C(=O)O)c1Cl", "system": "Key Broadleaf Weed and Crop Species", "parameter.measured": "pest or weed control at 140 g/ha", "meas.value": "75 to 84%"}
{"molecule": "Nc1cc(-c2ccc3c(c2Cl)OC(F)(F)O3)nc(C(=O)O)c1Cl", "system": "Key Broadleaf Weed and Crop Species", "parameter.measured": "pest or weed control at 140 g/ha", "meas.value": "75 to 84%"}
{"molecule": "COC(=O)c1nc(-c2ccc3c(c2F)OC(F)(F)O3)c(F)c(N)c1Cl", "system": "Key Broadleaf Weed and Crop Species", "parameter.measured": "pest or weed control at 140 g/ha", "meas.value": "95 to 100%"}
{"molecule": "COC(=O)c1nc(-c2ccc3c(c2)OC(C)O3)c(F)c(N)c1Cl (stereo not drawn)", "system": "Key Broadleaf Weed and Crop Species", "parameter.measured": "pest or weed control at 140 g/ha", "meas.value": "95 to 100%"}
{"molecule": "COc1c(C(=O)O)nc(-c2ccc3c(c2)OC(F)(F)O3)c(F)c1N", "system": "Key Broadleaf Weed and Crop Species", "parameter.measured": "pest or weed control at 140 g/ha", "meas.value": "75 to 84%"}
{"molecule": "COC(=O)c1nc(-c2cc3c(cc2Cl)OC(F)(F)O3)cc(N)c1Cl", "system": "Key Broadleaf Weed and Crop Species", "parameter.measured": "pest or weed control at 140 g/ha", "meas.value": "0 to 29%"}
{"molecule": "CC1(C)Oc2ccc(-c3nc(C(=O)O)c(Cl)c(N)c3F)cc2O1", "system": "Key Broadleaf Weed and Crop Species", "parameter.measured": "pest or weed control at 140 g/ha", "meas.value": "60 to 74%"}
{"molecule": "COC(=O)c1nc(-c2ccc3c(c2)OC(F)(F)O3)nc(N)c1Cl", "system": "Key Broadleaf Weed and Crop Species", "parameter.measured": "pest or weed control at 140 g/ha", "meas.value": "75 to 84%"}
{"molecule": "COC(=O)c1nc(-c2ccc3c(c2)OC(F)(F)O3)c(F)c(N)c1Cl", "system": "Key Broadleaf Weed and Crop Species", "parameter.measured": "pest or weed control at 140 g/ha", "meas.value": "95 to 100%"}
{"molecule": "COC(=O)c1nc(-c2ccc3c(c2)OC(C)(C)O3)c(F)c(N)c1Cl", "system": "Key Broadleaf Weed and Crop Species", "parameter.measured": "pest or weed control at 140 g/ha", "meas.value": "95 to 100%"}
{"molecule": "COC(=O)c1nc(-c2ccc(Br)c3c2OC(F)(F)O3)c(F)c(N)c1Cl", "system": "Key Broadleaf Weed and Crop Species", "parameter.measured": "pest or weed control at 140 g/ha", "meas.value": "85 to 94%"}
{"molecule": "COC(=O)c1nc(-c2ccc3c(c2)OC(F)(F)O3)c(C)c(N)c1Cl", "system": "Key Broadleaf Weed and Crop Species", "parameter.measured": "pest or weed control at 140 g/ha", "meas.value": "30 to 44%"}
{"molecule": "Nc1c(F)c(-c2ccc(Br)c3c2OC(F)(F)O3)nc(C(=O)O)c1Cl", "system": "Key Broadleaf Weed and Crop Species", "parameter.measured": "pest or weed control at 140 g/ha", "meas.value": "85 to 94%"}
{"molecule": "Cc1c(-c2cc(N)c(Cl)c(C(=O)O)n2)ccc2c1OC(F)(F)O2", "system": "Key Broadleaf Weed and Crop Species", "parameter.measured": "pest or weed control at 140 g/ha", "meas.value": "0 to 29%"}
